molecular target: Calcitonin gene-related peptide receptor (Callithrix jacchus); assay: Affinity against calcitonin gene related peptide receptor (1 uM) in marmoset tissue homogenates using [125I]CGRP as radioligand after 180 minutes of incubation at pH 7.40; conditions: pH 7.4
assay.metric: IC50

1) NCCCC[C@@H](NC(=O)[C@H](Cc1cc(Br)c(O)c(Br)c1)NC(=O)N1CCC(n2c(=O)[nH]c3ccccc32)CC1)C(=O)N1CCN(c2ccncc2)CC1 : 2.7 nM

Values compiled from BindingDB's records for doi:10.1021/jm0490641.
